Test: Solubility of the compound in 0.01 N HCl
Settings: 0.01 N HCl
MEASUREMENT_NAME: solubility (µM)

A: Cc1ncsc1-c1ccc(CNC(=O)[C@@H]2C[C@@H](O)CN2C(=O)[C@@H](NC(=O)COCCOCCOCc2cn(CCNC(=O)C[C@@H]3N=C(c4ccc(Cl)cc4)c4c(sc(C)c4C)-n4c(C)nnc43)nn2)C(C)(C)C)cc1
B: Cc1ncsc1-c1ccc(CNC(=O)[C@@H]2C[C@@H](O)CN2C(=O)[C@@H](NC(=O)COCCOCCOCCOCCOCc2cn(CCNC(=O)C[C@@H]3N=C(c4ccc(Cl)cc4)c4c(sc(C)c4C)-n4c(C)nnc43)nn2)C(C)(C)C)cc1
## Input Among A and B , whose measured solubility is the smaller figure? Label of pick, please.
## Output A
(A: 293 µM, B: 500 µM)
